As a worked illustration, we turn to GI50 data collected for HCT-15.

{"compound": "CCOC(=O)c1c(N2CCCC2)[nH]c(=O)c(C(c2ccc(OC)cc2)c2c(O)c(C(=O)OCC)c(N3CCCC3)[nH]c2=O)c1O", "modifier": ">", "GI50 (µM)": 100}
{"compound": "CCCCCNC1=CC(=O)c2ccccc2C1=O", "modifier": "=", "GI50 (µM)": 52.2}
{"compound": "O=C(O)C#CCO", "modifier": ">", "GI50 (µM)": 100}
{"compound": "C[C@]12CC[C@H]3[C@@H](CCC4=CC(=O)CC[C@@]43C)[C@@H]1CC[C@@H]2C(=O)COS(=O)(=O)c1ccc(Br)cc1", "modifier": "=", "GI50 (µM)": 14.2}
{"compound": "Cc1oncc1/N=C1\\C=C(O)C(=O)c2ccccc21", "modifier": "=", "GI50 (µM)": 3.72}
{"compound": "CCOC(=O)C(=O)Nc1c(F)cc(F)cc1Br", "modifier": ">", "GI50 (µM)": 100}
{"compound": "C[C@@H]1[C@@H](c2ccccc2)O[B-](c2ccccc2)(c2ccccc2)[N+]1(C)C", "modifier": "=", "GI50 (µM)": 58.7}
{"compound": "Cc1ccc(-c2c(C#N)c(-c3ccccc3)n(NS(=O)(=O)c3ccccc3)c(=O)c2C#N)cc1", "modifier": "=", "GI50 (µM)": 60}
{"compound": "N#CC12CC3=C(N=C1NC1=C(CCc4ccccc41)C2)c1ccccc1CC3 (stereo not given)", "modifier": "=", "GI50 (µM)": 1.76}
{"compound": "O=S(O)CCCSSCCCCSSCCCS(=O)O", "modifier": ">", "GI50 (µM)": 100}
